Property: cell viability; scope: individual compounds
# System: K562
# MEASUREMENT PROTOCOL: cell viability relative to vehicle control; higher = less cytotoxic;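 note: after 48 h exposure read by CellTiter-Glo luminescence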
# MEASUREMENT CONTEXT: 10 µM; SRSF2 genotype: SRSF2 wt/wt
Where a name gives a salt, the structure may show the parent alone.
METRIC: cell viability

| COMPOUND | RESULT |
| --- | --- |
| CC(C)CC(CC(=O)NO)C(=O)N[C@@H](Cc1ccc2ccccc2c1)C(=O)N[C@@H](C)C(=O)NCCN (some centres undefined) | 110% |
| Cc1cc([C@@H](C)Nc2ccccc2C(=O)O)c2nc(N3CCOCC3)cc(=O)n2c1 | 89.2% |
| O=c1[nH]cnc2nc[nH]c12 | 96.8% |
| CC(C)(C)S(=O)(=O)c1ccc2nccc(Nc3n[nH]c4ccc(F)cc34)c2c1 | 98.8% |
| O=[N+]([O-])c1ccc(S(=O)(=O)N2CCN(c3ccnc4cc(Cl)ccc34)CC2)c([N+](=O)[O-])c1 | 71.8% |
| C=C1CC[C@H]2C(=C)CC[C@H]3C(=C)C(=O)O[C@@H]3[C@@H]12 [Dehydrocostus Lactone] | 30.8% |
| C[C@@H](c1ncncc1F)[C@](O)(Cn1cncn1)c1ccc(F)cc1F | 99% |
| NCCc1c[nH]cn1 [Histamine] | 91.1% |
| COc1cc2c(=O)c(-c3ccc(O)cc3)coc2cc1O | 102% |
| COc1ccc(CC(C)NCC(O)c2ccc(O)c(NC=O)c2)cc1 (centres undefined) [Formoterol hemifumarate] | 91.5% |
| CO/N=C(\C(=O)N[C@@H]1C(=O)N2C(C(=O)[O-])=C(C[N+]3(C)CCCC3)CS[C@H]12)c1csc(N)n1 [Cefepime Dihydrochloride Monohydrate] | 106% |
| CC(C)(C)c1cc(O)ccc1O | 93.8% |
| C=C(C)[C@@H]1CC[C@]2(C)CC[C@]3(C)[C@H](CC[C@@H]4[C@@]5(C)CC[C@H](O)C(C)(C)[C@@H]5CC[C@]43C)[C@@H]12 | 113% |
| Cc1ccc(S(=O)(=O)c2ccc([N+](=O)[O-])o2)cc1 | 0.18% |

----------
# System: K562
# MEASUREMENT PROTOCOL: cell viability relative to vehicle control; higher = less cytotoxic
# MEASUREMENT CONTEXT: 10 µM; SRSF2 genotype: SRSF2 wt/wt
Property: cell viability; scope: individual compounds
METRIC: cell viability (%)

| COMPOUND | MEASURE UNIT | QUANTITATIVE READOUT |
| --- | --- | --- |
| COCC(=O)Nc1cc(Sc2ccccc2)ccc1N=C(NC(=O)OC)NC(=O)OC [Febantel] | % | 97.1 |
| N[C@@H](CSC(c1ccccc1)(c1ccccc1)c1ccccc1)C(=O)O | % | 34.4 |
| CCCCCCCCCCCCCc1cccc(O)c1C(=O)O [Ginkgolic Acid (C130)] | % | 108 |

----------
Property: cell viability; scope: individual compounds
# Tested on: OCI-AML2
# MEASUREMENT PROTOCOL: cell viability relative to vehicle control; higher = less cytotoxic
# MEASUREMENT CONTEXT: 10 µM; SRSF2 genotype: wt/wt
Where a name gives a salt, the structure may show the parent alone.
METRIC: cell viability (%)

| COMPOUND | QUANTITATIVE READOUT |
| --- | --- |
| CN(C)CCN1C(=O)c2cccc3cc(N)cc(c23)C1=O [Amonafide] | 2.97 |
| CN1CCc2c(c3ccccc3n2Cc2ccc(C(=O)NO)cc2)C1 [Tubastatin A hydrochloride] | 49.9 |
| COc1ccnc2[nH]cc(C(=O)C(=O)N3CCN(C(=O)c4ccccc4)C[C@H]3C)c12 | 86.4 |
| Cc1cccc(Nc2nc(N[C@@H]3CCCC[C@@H]3N)ncc2C(N)=O)c1 | 14.4 |
| O=C1C(c2[nH]c3ccc(S(=O)(=O)O)cc3c2O)=Nc2ccc(S(=O)(=O)O)cc21 | 84 |
| CCOC(=O)c1ccc(C#Cc2ccc3c(c2)C(C)(C)CCS3)nc1 | 27.8 |
| CCCCCCOC(=O)NC(=N)c1ccc(NCc2nc3cc(C(=O)N(CCC(=O)OCC)c4ccccn4)ccc3n2C)cc1 | 35.7 |
| O=c1c2cc(O)c(O)cc2oc2cc(O)c([C@@H]3O[C@H](CO)[C@@H](O)[C@H](O)[C@H]3O)c(O)c12 | 102 |
| Cn1cc(C2=C(c3ccc(Cl)cc3Cl)C(=O)NC2=O)c2ccccc21 | 107 |
| CCc1ccc(OCc2ccccc2C(=O)Nc2ccc3nc(C)cc(N)c3c2)cc1 | 0.53 |
| COc1cc2c(cc1OC)-c1c(C)c3ccc(OC)c(OC)c3c[n+]1CC2 [Dehydrocorydalin] | 84.1 |
| CN/C(=N\CCSCc1nc[nH]c1C)NC#N | 104 |
| CC(=O)O[C@]1(C(C)=O)CC[C@H]2[C@@H]3C=C(C)C4=CC(=O)CC[C@]4(C)[C@H]3CC[C@@]21C [Megestrol Acetate] | 73.1 |
| COc1cc(NC(=O)c2ccccn2)ccc1Cl | 80 |
| C[C@@H]1C[C@H]2[C@@H]3CCC4=CC(=O)C=C[C@]4(C)[C@@]3(F)[C@@H](O)C[C@]2(C)[C@@]1(O)C(=O)CO | 103 |
| O=C(O)c1ccc(O)cc1 [4-Hydroxybenzoic acid] | 102 |
| Cc1ncc(CCCN(C)C)cc1Nc1ncc2c(n1)-c1ccc(C(F)(F)F)cc1NC(=S)C2 | 21.1 |
| C[C@H]1COc2c(N3CCN(C)CC3)c(F)cc3c(=O)c(C(=O)O)cn1c23 [Levofloxacin hydrate] | 92.1 |
| CC1(C)S[C@@H]2[C@H](NC(=O)Cc3ccccc3)C(=O)N2[C@H]1C(=O)O.CCN(CC)CCOC(=O)c1ccc(N)cc1 | 99.4 |
| OC(CC1c2ccccc2-c2cncn21)C1CCCCC1 (centres undefined) | 99.7 |
| CN[C@@H](C)C(=O)N[C@H]1CN(C(=O)CC(C)C)CC[C@H]2CC[C@@H](C(=O)NC(c3ccccc3)c3ccccc3)N2C1=O | 39.2 |
| O=C1c2ccccc2-c2n[nH]c3cccc1c23 | 48.7 |
| CC[C@@]1(O)C(=O)OCc2c1cc1n(c2=O)Cc2cc3cc(O)ccc3nc2-1 [10-Hydroxycamptothecin] | 1.46 |
| CCCC(CCC)C(=O)O [Valproic acid] | 95.7 |

----------
# Test system: MARIMO
# MEASUREMENT PROTOCOL: cell viability relative to vehicle control; higher = less cytotoxic
# MEASUREMENT CONTEXT: 10 µM; SRSF2 genotype: SRSF2 P95H/wt
For each record, check the reported cell viability: if it is below 90% write y, else write n.

| MOLECULE | CAT |
| --- | --- |
| CN1CCN(Cc2ccc(NC(=O)Nc3ccc(Oc4ccnc(N)n4)cc3)cc2C(F)(F)F)CC1 | y |
| O=C(Cn1cnnn1)N[C@@H]1C(=O)N2C(C(=O)O)=C(CSc3nncs3)CS[C@H]12 [Ceftezole sodium] | n |
| C[C@@H](NC(=O)c1ncnc(N)c1Cl)c1ncc(C(=O)Nc2cc(C(F)(F)F)c(Cl)cn2)s1 | y |
| N/C(=N\N=C\c1ccc(Cl)cc1)N/N=C/c1ccc(Cl)cc1 [Robenidine Hydrochoride] | y |
| CNC(=O)CN1CCC(Oc2cc3c(Nc4cccc(Cl)c4F)ncnc3cc2OC)CC1 | n |
| CCOC(=O)C1=C(N)Oc2ccc(Cl)cc2C1C(C#N)C(=O)OCC (configuration not stated) | y |
| CCN(Cc1ccncc1)C(=O)C(CO)c1ccccc1 (configuration not stated) [Tropicamide] | n |
| O=NO [Sodium Nitrite] | n |
| Cc1cc(=O)n(-c2ccccc2)n1C [Antipyrine] | y |
| Cn1cc(-c2ccc(S(=O)(=O)n3ccc(/C=C/C(=O)Nc4ccccc4N)c3)cc2)cn1 | y |
| NC(=S)N/N=C/c1ncccc1N [Triapine] | y |

----------
# Test system: K562
# MEASUREMENT PROTOCOL: cell viability relative to vehicle control; higher = less cytotoxic
# MEASUREMENT CONTEXT: 10 µM; SRSF2 genotype: SRSF2 wt/wt
Structures can show the parent of a compound that is named as a salt.
METRIC: cell viability (%)

| COMPOUND | MEASURE UNIT | QUANTITATIVE READOUT |
| --- | --- | --- |
| CCN1CC(CCN2CCOCC2)C(c2ccccc2)(c2ccccc2)C1=O (stereo not given) [Doxapram HCl] | % | 112 |
| Cc1cc(C(=O)O)n[nH]1 | % | 103 |
| CN1[C@@H]2CC[C@H]1C[C@@H](OC(c1ccccc1)c1ccccc1)C2 [Benztropine mesylate] | % | 87 |
| C[C@H](O)[C@H](O)[C@@H](O)[C@@H](O)C=O [L (+)-Rhamnose Monohydrate] | % | 100 |
| COC(=O)[C@H](CCSC)NC(=O)c1ccc(NC[C@@H](N)CS)cc1-c1ccccc1 | % | 110 |
